# Tested on: MDA-MB-468
# Measurement description: Antiproliferative activity against human MDA-MB-468 cells transfected with CRBN siRNA LQ-021086-11-0002 assessed as cell growth inhibition after 4 days by WST-8 assay
# Type: functional, cell-based
# Test conditions: MDA-MB-468, 96 h
pIC50: −log10 of the molar value.
Below: a set of entries, each annotated with reported pIC50.

Check out these entries, answers already filled in.
INSERT INTO assay_data (compound, value_reported) VALUES
  ('O=C1CCC(N2Cc3c(CCCCCNC(=O)c4ccc(NC(=O)[C@@H]5NC6(CCCCC6)[C@@]6(C(=O)Nc7cc(Cl)ccc76)[C@H]5c5cccc(Cl)c5F)cc4)cccc3C2=O)C(=O)N1 (some centres undefined)', '< 5.52'),
  ('O=C1CCC(N2Cc3c(CCCCCNC(=O)[C@@H]4NC5(CCCCC5)[C@@]5(C(=O)Nc6cc(Cl)ccc65)[C@H]4c4cccc(Cl)c4F)cccc3C2=O)C(=O)N1 (some centres undefined)', '< 6.00'),
  ('CNC(=O)[C@@H]1NC2(CCCCC2)[C@@]2(C(=O)Nc3cc(Cl)ccc32)[C@H]1c1cccc(Cl)c1F', '< 5.52');

Given the entry O=C(O)c1ccc(NC(=O)[C@@H]2NC3(CCCCC3)[C@@]3(C(=O)Nc4cc(Cl)ccc43)[C@H]2c2cccc(Cl)c2F)cc1 , report its measured pIC50.
< 5.52

* * *

# Subject of test: E3 ubiquitin-protein ligase Mdm2 (Homo sapiens, UniProt Q00987)
# Sequence (Q00987 whole entry, the tested form may be a part): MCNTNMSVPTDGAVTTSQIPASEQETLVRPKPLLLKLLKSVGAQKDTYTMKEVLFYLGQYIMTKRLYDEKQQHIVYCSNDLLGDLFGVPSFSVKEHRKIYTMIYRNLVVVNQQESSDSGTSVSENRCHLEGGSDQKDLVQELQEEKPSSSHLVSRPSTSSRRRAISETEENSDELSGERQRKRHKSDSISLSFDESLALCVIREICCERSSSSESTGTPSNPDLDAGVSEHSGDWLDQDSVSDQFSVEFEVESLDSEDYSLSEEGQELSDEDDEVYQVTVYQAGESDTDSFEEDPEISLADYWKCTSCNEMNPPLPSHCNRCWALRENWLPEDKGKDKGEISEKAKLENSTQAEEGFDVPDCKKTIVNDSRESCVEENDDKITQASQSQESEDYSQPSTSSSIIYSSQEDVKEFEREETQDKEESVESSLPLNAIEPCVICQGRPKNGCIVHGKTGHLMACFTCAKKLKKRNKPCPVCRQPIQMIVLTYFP
# Measurement description: Displacement of PMDM6-F fluorescent probe from human recombinant His-tagged MDM2 (1 to 118 residues) after 15 mins by fluorescence polarization assay
Property name: IC50

Check out these entries, answers already filled in.
INSERT INTO measurements (compound, value_reported) VALUES
  ('O=C1CCC(N2Cc3c(CCCCCNC(=O)[C@@H]4NC5(CCCCC5)[C@@]5(C(=O)Nc6ccccc65)[C@H]4c4ccccc4)cccc3C2=O)C(=O)N1 (stereo partly drawn)', '> 20 µM'),
  ('O=C1CCC(N2Cc3c(CCCCCNC(=O)[C@@H]4NC5(CCCCC5)[C@@]5(C(=O)Nc6ccccc65)[C@H]4c4ccccc4F)cccc3C2=O)C(=O)N1 (stereo partly drawn)', '> 20 µM');

Short answer please: IC50, E3 ubiquitin-protein ligase Mdm2 (Homo sapiens, UniProt Q00987), entry O=C1CCC(N2Cc3c(CCCCCNC(=O)[C@@H]4NC5(CCCCC5)[C@@]5(C(=O)Nc6cc(Cl)ccc65)[C@H]4c4ccccc4)cccc3C2=O)C(=O)N1 (stereo partly drawn)
> 20 µM
